- Assay target: X-box-binding protein 1 (Homo sapiens, UniProt P17861)
- Sequence (P17861 whole entry): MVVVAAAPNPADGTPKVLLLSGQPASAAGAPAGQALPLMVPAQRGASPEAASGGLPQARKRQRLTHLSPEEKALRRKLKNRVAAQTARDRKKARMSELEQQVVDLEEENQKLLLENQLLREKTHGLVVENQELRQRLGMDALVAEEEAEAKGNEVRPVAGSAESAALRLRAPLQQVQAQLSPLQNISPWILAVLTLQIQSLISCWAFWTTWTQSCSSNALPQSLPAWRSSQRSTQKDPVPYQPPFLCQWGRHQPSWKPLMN
- Protocol: Transactivation of XBP1 (unknown origin) transfected in rat IEC-6 cells after 48 hrs by dual luciferase reporter gene assay
Please provide measured EC50 for the entries that follow.
Put down the number, then write its unit next to it.

Molecule: C=C(C(C)=O)c1c2c3c(ccc2c(C)c2[n+]1CCc1cc4c(cc1-2)OCO4)OCO3
Assay target: X-box-binding protein 1 (Homo sapiens, UniProt P17861)
EC50: 210 nM
//
Molecule: C1=C2c3cc4c(cc3CCN2Cc2c1ccc1c2OCO1)OCO4
Assay target: X-box-binding protein 1 (Homo sapiens, UniProt P17861)
EC50: 2.3 nM

Please turn your attention to the following entry.
Query: Short answer please: EC50, X-box-binding protein 1 (Homo sapiens, UniProt P17861), entry CC(=O)CC1c2c(ccc3c2OCO3)C=C2c3cc4c(cc3CCN21)OCO4 (stereo not drawn)
Result: 220 nM
